For each record, write down the corresponding pEC50.
target: Solute carrier family 12 member 5 (Homo sapiens, UniProt Q9H2X9); assay: concentration-response of KCC2 transport modulators – cell-based, HEK293 KCC2, FluoZin-2 fluorescence, dose response (AID 1736)
Sequence (Q9H2X9 whole entry): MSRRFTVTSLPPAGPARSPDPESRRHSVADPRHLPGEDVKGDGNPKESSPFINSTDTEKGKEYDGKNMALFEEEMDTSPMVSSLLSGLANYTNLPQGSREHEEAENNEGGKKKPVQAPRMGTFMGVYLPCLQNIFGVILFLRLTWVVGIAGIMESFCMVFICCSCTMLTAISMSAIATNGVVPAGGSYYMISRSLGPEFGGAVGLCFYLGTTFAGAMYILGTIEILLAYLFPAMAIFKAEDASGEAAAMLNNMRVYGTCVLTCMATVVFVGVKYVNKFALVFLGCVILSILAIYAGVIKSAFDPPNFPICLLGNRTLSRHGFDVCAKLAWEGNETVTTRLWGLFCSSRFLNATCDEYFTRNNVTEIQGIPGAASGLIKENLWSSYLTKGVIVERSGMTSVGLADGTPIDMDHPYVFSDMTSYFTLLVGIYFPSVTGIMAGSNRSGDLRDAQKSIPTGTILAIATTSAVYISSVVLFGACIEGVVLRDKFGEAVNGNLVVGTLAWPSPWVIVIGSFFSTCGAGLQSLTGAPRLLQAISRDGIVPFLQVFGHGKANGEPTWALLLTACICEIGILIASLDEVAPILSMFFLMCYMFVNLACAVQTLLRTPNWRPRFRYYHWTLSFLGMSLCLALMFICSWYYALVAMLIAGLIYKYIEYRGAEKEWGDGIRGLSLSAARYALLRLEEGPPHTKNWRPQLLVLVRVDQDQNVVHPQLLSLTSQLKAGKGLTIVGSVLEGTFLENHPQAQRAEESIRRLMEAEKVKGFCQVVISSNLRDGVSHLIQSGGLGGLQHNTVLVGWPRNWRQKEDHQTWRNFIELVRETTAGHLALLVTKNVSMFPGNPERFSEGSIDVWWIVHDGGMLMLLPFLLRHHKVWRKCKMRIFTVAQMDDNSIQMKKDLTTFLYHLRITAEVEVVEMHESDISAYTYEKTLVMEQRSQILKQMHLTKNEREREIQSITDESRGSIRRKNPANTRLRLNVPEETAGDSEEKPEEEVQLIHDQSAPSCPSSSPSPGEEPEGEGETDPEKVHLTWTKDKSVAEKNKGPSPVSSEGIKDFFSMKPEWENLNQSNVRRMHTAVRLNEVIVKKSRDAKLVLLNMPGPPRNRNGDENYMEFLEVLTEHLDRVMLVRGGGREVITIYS
Scale explanation: pEC50 corresponds to minus log10 of a concentration expressed in moles per litre.

compound `COCCNS(=O)(=O)c1ccc(-c2ccc(Cl)cc2)cc1` , pEC50 observed: 5.22

pEC50 measured on `COc1ccc(S(=O)(=O)N(CCc2ccccc2)CC(=O)O)cc1Cl` = 5.12

pEC50 measured on Cc1ccc(S(=O)(=O)N2CCC(=O)N(C(COCc3ccccc3)Cc3ccccc3)CC2)cc1 (stereo unspecified) = 5.77

Value of pEC50 reported for the compound `O=C(OCC(=O)N1CCc2ccccc2C1)c1ccc(N2CCOCC2)c([N+](=O)[O-])c1` is 5.27

// field: pEC50; key: `O=C(C1CC1)N1CCc2cc(S(=O)(=O)NC3CCN(Cc4ccccc4)CC3)ccc21` ; value = 5.20

# pEC50 (compound: `O=C(OCc1ccccn1)c1ccc(COc2ccccc2Cl)o1` ) is 4.84

Note to self: pEC50 recorded for Cc1ccc(C2=CSC3=NNC4(CCCCC4)NN23)cc1 [SMR000306481] was 5.60

The reported value for `O=C(NC(=S)Nc1nc(-c2cccc([N+](=O)[O-])c2)cs1)c1cc(Cl)ccc1Cl` in terms of pEC50 is 4.79

`Sc1nnc(CNc2cccc(Cl)c2)o1` yielded pEC50 of 5.76

Lab note: measured pEC50 of O=C(NNc1nc(-c2ccccc2)cs1)c1ccccc1 [MLS000547345] was 7.62

Form field pEC50, entry CC(C)(C)NC(=O)C(c1cccs1)N(CC1CCCO1)C(=O)c1ccc(-c2ccccc2)[nH]1 (stereo unspecified) : 6.35

Quick note, pEC50 for `O=C(Cn1cnc2c(nnn2Cc2ccc(F)cc2)c1=O)NCc1ccc2c(c1)OCO2` landed at 5.77

Record summary for `O=C1OC(c2ccc(O)cc2)(c2ccc(O)cc2)c2ccccc21` : reported pEC50 = 5.64

Per the record, CCn1c(SCC(=O)Nc2ccc(Cl)cc2)nc2nc3c(cc2c1=O)CCCC3 [MLS000589154] has pEC50 of 4.55

Reported pEC50 ( `COc1cccc(C=c2sc(=CC(=O)c3ccc(C)cc3)[nH]c2=O)c1OC` ) = 4.81

Short answer for O=C(Cc1csc(-c2ccccc2)n1)NCc1ccc(F)cc1 [MLS000336311] : pEC50 was 5.44

pEC50 reported for this compound `Fc1ccc(CSc2nncn2NC/C=C/c2ccccc2)cc1` : 4.52

// field: pEC50; key: O=C(NCc1nc(-c2ccccc2)cs1)c1ccccc1 [MLS000661971] ; value = 5.19

Lookup result for `NC(=S)NN=C1C(=O)N(Cc2ccccc2)c2ccccc21` ; measured pEC50: 6.53

The recorded pEC50 for CC(C)NC(=S)NNC1=c2cc(C(C)C)ccc2=NC1=O [SMR000242097] is 5.29

Recorded pEC50 (compound `O=C(CSc1nnc(-c2ccc(F)cc2)o1)N1CCN(C(=O)c2ccco2)CC1` ): 5.15

---

So I've got a bunch of compounds here, and I need their EC50 values.
target: UniProtKB Q9H2X9; assay: concentration-response of KCC2 transport modulators – cell-based, HEK293 KCC2, FluoZin-2 fluorescence, dose response (AID 1736); conditions: inactive by the depositor's call
Number only, in µM; omit the unit.

The value of EC50 measured for the compound `Cc1ccc(-c2nn(Cc3ccccc3)cc2/C=C/C(=O)O)cc1` turned out to be 12.1

Noted for `Fc1ccccc1CSc1nncn1NC/C=C/c1ccccc1` : its EC50 reads 0.0567

// field: EC50; key: `COc1ccc(Nc2nnc(SCc3cc(=O)n4ccsc4n3)s2)cc1` ; value = 8870

EC50 for `COc1ccc(C(=O)NC(=S)N2CCN(c3ccc([N+](=O)[O-])cc3)CC2)cc1` is 0.178

Summary for this compound, `CCOc1ccccc1CNC(=O)C1CCN(c2nc3ccccc3o2)CC1` : EC50 is 95.9

// sample CC(/C=C1\SC(=S)N(C(C(=O)O)C(C)C)C1=O)=C\c1ccccc1 (stereo not given) , its EC50 was 2.68

Reported EC50 ( `Cc1ccc(CN(C)C(=O)c2cc(COc3ccc(F)cc3Cl)on2)o1` ) = 89.2

Measured EC50 of `COc1cc(-c2nnc(CSc3nnc(Nc4ccc(C(C)C)cc4)s3)o2)cc(OC)c1OC` : 2.2

compound `CC(C)c1ccc(C=NNC(=O)c2ccccc2Cl)cc1` , EC50 observed: 45.8

`Cc1nc(CC(=O)Nc2nc(-c3ccccc3)cs2)cs1` has a reported EC50 of 1.81
